Cited source for all entries: PubChem BioAssay AID2060614

For each entry below, report its viability, T/C value.
# System: 598228-144-R-J1-PDC complex spheroids, viability;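 note: spheroids exposed to compounds for seven days before readout; 100% = DMSO vehicle control wells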
# METHOD NOTES: Anticancer human tumor 598228-144-R-J1-PDC patient-derived serous endometrial adenocarcinoma cell line growth inhibition [CLK]
# RUN CONDITIONS: second compound 3.16 µM; first compound 0.00316 µM; stronger effect = lower value
One number for each entry, in %.

Below, each entry is followed by its recorded viability, T/C result.
COMPOUND	ENDPOINT VALUE
COc1c(OCCCN2CCOCC2)ccc2c3n(c(=NC(=O)c4cnc(N)nc4)nc12)CCN3 + CN1CCN(c2cc(C(=O)Nc3cc4cc(-c5cnn(C)c5)ccc4cn3)ccn2)CC1	0.95
Cn1ncnc1[C@H]1c2n[nH]c(=O)c3cc(F)cc(c23)N[C@@H]1c1ccc(F)cc1 + CNC(=O)c1ccc(Nc2nc(OC3CCCC3)c3c(-c4ccc5nc(C)oc5c4)c[nH]c3n2)c(OC)c1	99.7

Next compound, viability, T/C to be filled in.
Query string: Report value: viability, T/C, system: 598228-144-R-J1-PDC complex spheroids, viability, compound: CCc1c2c(nc3ccc(O)cc13)-c1cc3c(c(=O)n1C2)COC(=O)[C@]3(O)CC + CNC(=O)c1ccc(Nc2nc(OC3CCCC3)c3c(-c4ccc5nc(C)oc5c4)c[nH]c3n2)c(OC)c1;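 note: spheroids exposed to compounds for seven days before readout; 100% = DMSO vehicle control wells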
Result string: 108
